assay: NCI Yeast Anticancer Drug Screen. Data for the mlh1 rad18 strain (AID 175); settings: S. cerevisiae mlh1 rad18 strain growth inhibition; at 5.0 µM (retest, dose inferred, filed as 0.5)
The panel holds about 79,000 compounds, 15% with a hit somewhere; the sample as a whole holds those more often. Calls of active or inactive are those of the source. Cut-off read from the data, not from the text of the source: active = growth inhibition above about 70%; inactive = the rest.
Hi there, use one of these labels in your reply, thanks! active, inactive

- compound: "CCC1(CC)C(=O)[N-]C(=O)[N-]C1=O.[Au+].[Au+].c1ccc([PH+](c2ccccc2)c2ccccc2)cc1.c1ccc([PH+](c2ccccc2)c2ccccc2)cc1"
  assignedClass: "active"
- compound: "CCC(=O)O[C@H]1CC[C@H]2[C@@H]3CCC4=C/C(=N/OC(=O)c5cccc6c(=O)c7ccccc7[nH]c56)CC[C@]4(C)[C@H]3CC[C@]12C"
  assignedClass: "inactive"
- compound: "CC[C@@]1(O)CC(OC2CC(N3CCOCC3)C(O)C(C)O2)c2c(O)c3c(c(O)c2[C@H]1O)C(=O)c1cccc(O)c1C3=O (some centres undefined)"
  assignedClass: "inactive"
- compound: "CCN(CC)CC(=O)c1ccc2c(ccc3ccccc32)c1"
  assignedClass: "inactive"
- compound: "NCC(O)c1cccc(O)c1 (centres undefined)"
  assignedClass: "inactive"

**Query** Assay result, entry Cc1ccc2c(c1)C1(C)c3cc(C)ccc3SP1S2 (centres undefined) — outcome?
**Result** inactive

**Query** Assay result, entry CCOC(=O)/C(=C\c1ccc(C(=O)OC)cc1)[Se]c1ccccc1 — outcome?
**Result** inactive

**Query** Assay result, entry CCCC[CH2][Sn]([CH2]CCCC)[CH2]CCCC.CCCC[CH2][Sn]([CH2]CCCC)[CH2]CCCC — outcome?
**Result** inactive

**Query** Assay result, entry ClCCCCCl — outcome?
**Result** inactive

====

assay: NCI Yeast Anticancer Drug Screen. Data for the rad50 strain (AID 155);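 note: 0% = growth of vehicle-only cultures of the same strain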; details: S. cerevisiae rad50 strain growth inhibition; at 1.2 µM; active compounds read high
About 79,000 compounds went through this panel and 15% of them were active in at least one assay; those are over-represented in the sample as a whole.
experimentalReadout: growth inhibition (%)
Note: unit % is implicit; provide only the numeric part.

Study these solved cases before continuing.
- compound: "O=C1c2ccccc2C(=O)C(Cl)C1Cl (stereo unspecified)"
  growth inhibition / %: 5
- compound: "O=[N+]([O-])c1ccc(C=Cc2ccccc2)cc1.[C-]#[O+].[C-]#[O+].[C-]#[O+].[Cr]"
  growth inhibition / %: 6
- compound: "CCOP(=S)(S)OCC.[Pd]"
  growth inhibition / %: 12
- compound: "S=C1NC2(CCCCC2)NC12CCCCC2"
  growth inhibition / %: 0
- compound: "O=P(Oc1ccc(Cl)cc1)(Oc1ccc(Cl)cc1)N1CC1"
  growth inhibition / %: 2

**Query** Any idea what its growth inhibition is? The compound is CCC(=O)OC1CCn2c1nc1c2C(=O)C(C)=C(N2CC2)C1=O (stereo unspecified)
**Result** 18

====

assay: NCI Yeast Anticancer Drug Screen. Data for the cln2 rad14 strain (AID 165);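 note: 0% = growth equal to vehicle treated cultures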; conditions: S. cerevisiae cln2 rad14 strain, at 5.0 µM (retest, dose inferred, filed as 0.5), active compounds read high
The panel holds about 79,000 compounds, 15% with a hit somewhere; the sample as a whole holds those more often.
experimentalReadout: growth inhibition (%)
Note: unit % is implicit; provide only the numeric part.

Study these solved cases before continuing.
- molecule: "O=C1c2ccccc2[Se](=O)N1c1ccccc1 (centres undefined)"
  observed: 45
- molecule: "CC(Br)c1ccccc1 (centres undefined)"
  observed: 3
- molecule: "COc1cc(N(CCCl)CCCl)ccc1C=Nc1cccc(Cl)c1"
  observed: 0
- molecule: "CC(=O)OC(C)(C)/C=C/C(=O)[C@](C)(O)[C@H]1[C@H](O)C[C@@]2(C)[C@@H]3CC=C4[C@@H](C[C@H](O)[C@H](O)C4(C)C)[C@]3(C)C(=O)C[C@]12C"
  observed: 43
- molecule: "COc1c(O)c2c(c3cc(C(=O)N4CCc5c4c(O)c(OC)c4[nH]c(C(=O)N6CC7CC78C6=CC(=O)c6[nH]cc(C)c68)cc54)[nH]c13)CCN2C(N)=O (centres undefined)"
  observed: 95

**Query** Any idea what its growth inhibition is? The molecule is C/C=C(\C)C(=O)OC1C(C)=C2C(C1OC(=O)CCCCC)C(C)(OC(C)=O)CC(OC(=O)CCC)C1(O)C2OC(=O)C1(C)O (centres undefined)
**Result** 34

**Query** Any idea what its growth inhibition is? The molecule is CC1(C)N=C(N)N=C(N)N1CCCOc1ccc(NC(=O)c2ccc(S(=O)(=O)F)cc2)cc1
**Result** -3

**Query** Any idea what its growth inhibition is? The molecule is O=[C-]CCCCCC[C-]=O.[C-]#[O+].[C-]#[O+].[C-]#[O+].[C-]#[O+].[Fe+6].[Fe+6].[c-]1[c-][c-][cH-][c-]1.[c-]1[c-][c-][cH-][c-]1
**Result** 1

**Query** Any idea what its growth inhibition is? The molecule is CCC[CH2][Sn]1([CH2]CCC)[O]C(=O)c2cc(C)ccc2[O]1
**Result** 71

**Query** Any idea what its growth inhibition is? The molecule is CC(C)C1=CC23CCC4C(C)(C(=O)O)CCCC4(C)C2CC1OO3 (centres undefined)
**Result** 1

**Query** Any idea what its growth inhibition is? The molecule is [Ni+2].[SH2+]C([SH2+])=Nc1ccccc1.[SH2+]C([SH2+])=Nc1ccccc1.c1ccc(C[P+](c2ccccc2)(c2ccccc2)c2ccccc2)cc1
**Result** -6

**Query** Any idea what its growth inhibition is? The molecule is [N-]=[N+]=C1C(Cl)=C(Cl)C(Cl)=C1Cl
**Result** -6

**Query** Any idea what its growth inhibition is? The molecule is O=C(N/N=C/c1ccc(F)cc1)c1ccc(N(CCCl)CCCl)cc1
**Result** -26

**Query** Any idea what its growth inhibition is? The molecule is S=P(S)(Oc1ccccc1)Oc1ccccc1
**Result** -11

**Query** Any idea what its growth inhibition is? The molecule is CN(/N=C/c1ccc(Cl)cc1)P(=O)(N1CC1)N1CC1
**Result** 31

**Query** Any idea what its growth inhibition is? The molecule is Nc1nnc(N)n1-n1c(N)nnc1N
**Result** -2

**Query** Any idea what its growth inhibition is? The molecule is O=C(Cl)c1ccccn1
**Result** 6

====

Assay: NCI Yeast Anticancer Drug Screen. Data for the rad50 strain (AID 155);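 note: 0% = growth of vehicle-only cultures of the same strain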
Conditions: S. cerevisiae rad50 strain growth inhibition; at 50.0 µM; active compounds read high
Protocol: Growth inhibition of yeast strains with defined genetic alterations is measured as a screen for potential anti-cancer activity. Selected strains with alterations in DNA damage repair or cell cycle control were exposed to compounds and growth inhibition was measured relative to vehicle treated controls. The strain used in this assay is rad50
The panel holds about 79,000 compounds, 15% with a hit somewhere; the sample as a whole holds those more often. Activity calls are given as the source filed them. Rule as the data show it: active = growth inhibition above about 70%; inactive = the rest.
experimentalReadout: growth inhibition

- molecule: "O=C1C=CC(=O)C1(Br)Br"
  growth inhibition: "99.6% (active)"
- molecule: "CCOP(=O)(Cc1cccc2ccccc12)OCC"
  growth inhibition: "4.65% (inactive)"
- molecule: "COc1cc[c]([Sb]([Br])([CH]=C(C)C)([CH]=C(C)C)[CH]=C(C)C)cc1"
  growth inhibition: "80.8% (active)"

**Query** Any idea what its growth inhibition is? The molecule is CC1CCCN(CCc2ccccc2)CC1 (stereo not given)
**Result** 17.4% (inactive)

**Query** Any idea what its growth inhibition is? The molecule is COC1/C=C\C=C(/C)C(=O)NC2=CC(=O)C(NCCCl)=C(CC(C)CC(OC)C(O)C(C)/C=C(/C)C1OC(N)=O)C2=O (stereo not given)
**Result** 91% (active)

**Query** Any idea what its growth inhibition is? The molecule is Clc1c(Cl)c(Cl)c([S][Pb]([c]2ccccc2)([c]2ccccc2)[c]2ccccc2)c(Cl)c1Cl
**Result** 98.5% (active)

**Query** Any idea what its growth inhibition is? The molecule is N#CC(C#N)=Cc1ccc([N+](=O)[O-])s1
**Result** 99.6% (active)

====

assay: NCI Yeast Anticancer Drug Screen. Data for the bub3 strain (AID 167); conditions: S. cerevisiae bub3 mutant strain, at 50.0 µM
About 79,000 compounds went through this panel and 15% of them were active in at least one assay; those are over-represented in the sample as a whole. The source made the active and inactive calls. Cut-off read from the data, not from the text of the source: active = growth inhibition above about 70%; inactive = the rest.
Hi there, use one of these labels in your reply, thanks! active, inactive

Completed entries (count: 3):
- molecule: "CC(C)O.CC(C)O.OCCN(CCO)CCO.OCCN(CCO)CCO.[Ti+2]"
  assignedClass: "inactive"
- molecule: "C[C@]12CC[C@H]3[C@@H](C[C@@H](F)C4=CC(=O)CC[C@@]43C)[C@@H]1CC[C@@H]2O"
  assignedClass: "inactive"
- molecule: "N#CC(=C=N)N=C(F)C(C#N)=C(C#N)C#N"
  assignedClass: "active"

**Query** Assay result, entry COc1ccc2c(c1O)-c1cccc3c1[C@@H](C2)N(CCCl)CC3 — outcome?
**Result** inactive

**Query** Assay result, entry O=C(O)C(O)(c1ccccc1)C1(O)CCCCC1 (centres undefined) — outcome?
**Result** inactive

**Query** Assay result, entry CCOC(=O)C1=C(C)NC(=O)NC1c1ccc(N(CCCl)CCCl)cc1Cl (centres undefined) — outcome?
**Result** active

**Query** Assay result, entry O=[N+]([O-])c1ccc(C=Cc2ccc(C(F)(F)F)cc2)cc1.[C-]#[O+].[C-]#[O+].[C-]#[O+].[Cr] — outcome?
**Result** active

**Query** Assay result, entry ClCc1nc2ccccc2[nH]1 — outcome?
**Result** inactive

**Query** Assay result, entry O=C(c1ccccc1)c1c(CC(O)c2ccccn2)n(C(=O)c2ccccc2)c2ccccc12 (centres undefined) — outcome?
**Result** active

**Query** Assay result, entry CCN1/C(=C\c2ccc3cc(C)ccc3[n+]2CC)[Se]c2ccccc21 — outcome?
**Result** active
